Collected AC50 values appear next to each entry.
target: Cytochrome P450 2C19 (Homo sapiens, UniProt P33261); experiment: Cytochrome panel assay with activity outcomes. Panel member name: p450-cyp2c19 Compounds with AC50 equal or less than 10 uM are considered active; type: functional; details: read-out: AC50
Sequence (P33261 whole entry): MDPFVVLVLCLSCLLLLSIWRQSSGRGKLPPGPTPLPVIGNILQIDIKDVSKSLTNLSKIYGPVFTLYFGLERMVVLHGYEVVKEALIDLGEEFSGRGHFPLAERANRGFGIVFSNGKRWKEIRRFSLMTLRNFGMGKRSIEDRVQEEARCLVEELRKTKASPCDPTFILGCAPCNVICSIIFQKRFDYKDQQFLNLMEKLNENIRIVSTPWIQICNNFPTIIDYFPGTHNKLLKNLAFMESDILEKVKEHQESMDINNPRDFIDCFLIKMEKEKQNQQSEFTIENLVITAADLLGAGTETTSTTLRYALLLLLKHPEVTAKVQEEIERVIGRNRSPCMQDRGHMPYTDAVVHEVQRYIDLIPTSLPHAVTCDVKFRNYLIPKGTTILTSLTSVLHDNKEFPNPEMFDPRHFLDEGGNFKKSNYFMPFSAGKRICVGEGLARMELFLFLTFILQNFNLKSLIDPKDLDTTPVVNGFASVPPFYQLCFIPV

MOLECULE	AC50
O=c1cnc2cnc(Nc3ccccc3)nc2n1C1CC1	20 µM (inconclusive)
COc1ccc([N+](=O)[O-])cc1COc1ccc2c(-c3ccccc3)cc(=O)oc2c1	3.55 µM (inconclusive)

Quick one: AC50 for CCOC(=O)c1c(C)nc2sc3c(=O)n(-c4ccc(OC)cc4)nnc3c2c1-c1ccc(OC)cc1 ?
2.51 µM (inconclusive)

Recorded AC50 for COC(=O)N1CCC2(CCCN(Cc3ccc(C#N)cc3)C2)CC1 , please?
7.94 µM (inconclusive)

Entry COc1ccc(NC2=NCC(=O)N2Cc2cccs2)cc1 : reported AC50 = ?
8.91 µM (inconclusive)

AC50 for O=C1c2ccccc2C(=O)N1CC1CCCO1 (stereo unspecified) ?
0.355 µM (inconclusive)

---

# AC50 measurements, system: Cytochrome P450 2C9 (Homo sapiens, UniProt P11712)
# Sequence (P11712 whole entry): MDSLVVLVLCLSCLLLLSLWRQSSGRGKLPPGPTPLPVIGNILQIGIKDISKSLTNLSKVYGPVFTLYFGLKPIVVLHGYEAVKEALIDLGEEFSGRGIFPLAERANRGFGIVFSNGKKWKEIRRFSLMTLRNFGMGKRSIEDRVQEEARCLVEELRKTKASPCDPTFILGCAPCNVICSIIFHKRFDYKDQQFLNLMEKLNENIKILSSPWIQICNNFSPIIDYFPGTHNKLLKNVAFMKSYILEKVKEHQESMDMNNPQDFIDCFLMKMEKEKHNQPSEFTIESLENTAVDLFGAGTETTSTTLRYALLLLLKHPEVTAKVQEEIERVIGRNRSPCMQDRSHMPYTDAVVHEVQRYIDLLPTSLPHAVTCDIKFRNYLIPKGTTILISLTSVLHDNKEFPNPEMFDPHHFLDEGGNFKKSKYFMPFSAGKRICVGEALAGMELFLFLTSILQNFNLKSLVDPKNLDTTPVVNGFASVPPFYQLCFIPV

The examples below pair each entry with its known result.
COMPOUND	AC50
CCOc1cc(CNCCc2ccc(S(N)(=O)=O)cc2)ccc1OCc1ccc(Cl)cc1	11.2 µM (inconclusive)
COc1ccc(/C=N/Nc2snc(SC)c2C#N)cc1OC	12.6 µM (inconclusive)

Now for a further compound.
Find AC50 (Cytochrome P450 2C9 (Homo sapiens, UniProt P11712)) for the entry Cc1cc(C)c(/C=C2/C(=O)Nc3ccccc32)[nH]1
2.51 µM (inconclusive)

---

tested on: P388; assay: cells; assay type: functional; settings: Mus musculus, P388;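 note: compound exposure lasted 48 hours before growth was measured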
Active and inactive are the calls of the source.
// classify into YES (active), NO (inactive)

Worked examples follow.
MOLECULE	DISCRETE_LABEL
O=P1(Oc2ccc(Cl)cc2Cl)Oc2cc3ccccc3cc2O1	NO
CSCC[C@@H](NC(=O)[C@H](CC(C)C)NC(=O)C(Cc1cnc[nH]1)NC(=O)CNC(=O)[C@@H](NC(=O)[C@H](C)NC(=O)[C@H](Cc1c[nH]c2ccccc12)NC(=O)[C@H](CCC(N)=O)NC(=O)[C@@H](N)CC(N)=O)C(C)C)C(N)=O (some centres undefined)	NO
Cc1c(-c2ccc(-c3ccccc3F)cc2)nc2ccc(F)cc2c1C(=O)O [BREQUINAR SODIUM]	YES

Next up:
Kindly provide the recorded test outcome for the following molecule: NC(=O)c1csc(C2OC(CO)C(O)C2O)n1 (centres undefined)
NO

---

Target: Streptokinase A (Streptococcus pyogenes serotype M1, UniProt P10520)
Sequence (P10520 whole entry): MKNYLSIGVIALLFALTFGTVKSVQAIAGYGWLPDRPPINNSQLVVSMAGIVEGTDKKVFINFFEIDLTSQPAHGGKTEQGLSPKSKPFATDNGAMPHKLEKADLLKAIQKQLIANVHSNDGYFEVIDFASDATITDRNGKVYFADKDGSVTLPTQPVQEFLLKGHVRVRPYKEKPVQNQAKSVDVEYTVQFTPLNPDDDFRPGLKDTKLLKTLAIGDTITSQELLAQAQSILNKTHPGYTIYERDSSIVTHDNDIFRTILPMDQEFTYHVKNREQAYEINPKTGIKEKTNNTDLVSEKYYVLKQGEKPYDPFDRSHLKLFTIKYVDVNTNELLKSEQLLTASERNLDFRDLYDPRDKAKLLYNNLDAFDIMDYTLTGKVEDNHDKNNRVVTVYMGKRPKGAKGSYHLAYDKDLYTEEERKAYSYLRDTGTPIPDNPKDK
Test: S. pyogenes streptokinase expression inhibitors, potency, dose response, plasminogen activation absorbance, OD405 (AID 1914);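 note: secreted streptokinase activity via plasminogen activation per viability signal from cell pellet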
Type: functional, Streptococcus pyogenes M1 GAS
The source made the active and inactive calls.
# EC50 per record follows

Look over these answered cases.
COMPOUND	ENDPOINT_RESULT
COc1cccc(COC(=O)c2ccc3c(=O)n4c(nc3c2)CCC4)c1OC	> 150 µM (not active)
Cc1cc(NC(=O)c2ccc3c(c2)OCCO3)ccc1NC(=O)c1cc2ccccc2o1	> 150 µM (not active)
S=c1[nH]c(SCc2ccccc2)nc2ccccc12	> 150 µM (not active)
O=C(CSc1nnc(NC(=O)c2cccc(Cl)c2)s1)NCC1CCCO1 (stereo not given)	> 150 µM (not active)

Item under review: COc1ccc(/C=N/NC(=O)Cc2csc(Nc3cccc(C(F)(F)F)c3)n2)cc1C . Reported EC50?
10.4 µM (active)

---

assay: CRF-BP/CRF-R2 complex antagonists, dose response, cell-based, uHTS hits, 384-well (AID 651639); assay type: functional, Homo sapiens; settings: read-out: IC50_Mean
The source made the active and inactive calls.
# IC50 annotations

Could you tell me which IC50 is on file for O=C(COc1ccc2ccccc2c1)Nc1cccc(C(=O)Nc2ccccc2C(=O)O)c1 ?
7.44 µM (active)

So what's the measured IC50 for this one? COC(=O)c1cc(C#N)c(NCc2ccccc2)nc1C
> 20 µM (inactive)

Need IC50, item Cc1cc([N+](=O)[O-])ccc1NCc1ccco1
7.36 µM (active)

Tell me the measured IC50 of CCC(=O)N(Cc1c(C)nn(-c2ccccc2)c1Cl)c1ccc(Cl)cc1 , please.
19.8 µM (active)

---

Target: Heat shock factor protein 1 (Mus musculus)
Sequence (P38532 whole entry): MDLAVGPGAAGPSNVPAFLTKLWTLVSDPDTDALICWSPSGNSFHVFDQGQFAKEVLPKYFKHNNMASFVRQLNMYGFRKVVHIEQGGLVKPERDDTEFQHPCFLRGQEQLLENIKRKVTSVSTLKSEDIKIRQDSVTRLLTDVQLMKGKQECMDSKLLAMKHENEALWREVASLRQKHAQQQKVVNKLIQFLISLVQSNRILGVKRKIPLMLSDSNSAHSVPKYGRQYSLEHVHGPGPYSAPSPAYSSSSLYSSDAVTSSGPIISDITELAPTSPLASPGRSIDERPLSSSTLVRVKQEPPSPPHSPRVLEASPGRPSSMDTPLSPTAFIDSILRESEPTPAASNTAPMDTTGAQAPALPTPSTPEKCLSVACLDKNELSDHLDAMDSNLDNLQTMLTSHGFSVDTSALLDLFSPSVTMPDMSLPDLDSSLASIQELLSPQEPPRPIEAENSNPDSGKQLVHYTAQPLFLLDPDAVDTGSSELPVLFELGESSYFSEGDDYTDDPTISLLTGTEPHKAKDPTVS
Test: inhibition of MG132-induced HSE-luciferase signal, confirmation, cell-based, NIH3T3, luminescence, dose retest (AID 2382);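 note: NIH3T3 fibroblasts with HSF1-driven luciferase reporter stressed by proteasome inhibitor MG132; luminescence from HSF1-driven luciferase expression after 8 hours of MG132 stress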
Type: functional
Active and inactive are the calls of the source.
PARAMETER: EC50

Would you please look over these solved cases?
O=C(N/N=C/c1cc([N+](=O)[O-])ccc1O)c1ccncc1 0.66 µM (active)
COCCOC(=O)CC1=NC(=O)CS1 > 195 µM (not active)
Cc1ccc(-c2nn(-c3ccccc3)cc2CN(C)C(=O)CCC(=O)O)cc1C > 195 µM (not active)

Now for a further molecule.
Report EC50 for COc1ccc(NC(=O)c2cc(CN3C(=O)c4ccccc4C3=O)ccc2OC)cn1 please.
> 195 µM (not active)

---

experiment: HepG2 cell cytotoxicity, dose response, cytotoxicity control for Shn3 inhibitor project, CellTiter-Glo, cherry-picked (AID 624134); format: functional, cell-based
Activity calls are given as the source filed them.
Please state which outcome applies, choosing from label 1 for active, label 0 for inactive

MOLECULE	DISCRETE_LABEL
CCn1c(CNC(=O)c2cc(OC)c(OC)c(OC)c2)cc2cc(C)ccc21	label 0
C=CCn1c(SCC(=O)c2[nH]c(C)c(C(=O)OC)c2C)nc2scc(-c3ccc(OC)c(OC)c3)c2c1=O	label 1
CC(=O)c1ccc(N2CCN(S(=O)(=O)c3ccc(-c4cnc(C5CC5)o4)cc3)CC2)cc1	label 1

Tell me the assay call for Cc1c(C(=O)Nc2cccc(C(F)(F)F)c2)oc2ccc(S(=O)(=O)N3CCOCC3)cc12 please.
label 0

Kindly provide the recorded test outcome for the following molecule: O=C(Nc1nc2cc3c(cc2s1)OCCO3)C1=COCCO1
label 1

Give the logged outcome of this assay for the following molecule: C=CCCc1ccc(C#N)c(SCc2c(C(=O)OCC)c3cc(OC(C)=O)c(Br)cc3n2C)n1
label 1

Name the outcome recorded for OC1(c2ccc(OC(F)F)cc2)CS/C(=N\c2cccnc2)N1C1CC1 (configuration not stated) in the assay.
label 1

---

Target: Corticotropin-releasing factor receptor 2/Corticotropin-releasing factor-binding protein (Homo sapiens, UniProt P24387+Q13324)
Sequence (Q13324 whole entry): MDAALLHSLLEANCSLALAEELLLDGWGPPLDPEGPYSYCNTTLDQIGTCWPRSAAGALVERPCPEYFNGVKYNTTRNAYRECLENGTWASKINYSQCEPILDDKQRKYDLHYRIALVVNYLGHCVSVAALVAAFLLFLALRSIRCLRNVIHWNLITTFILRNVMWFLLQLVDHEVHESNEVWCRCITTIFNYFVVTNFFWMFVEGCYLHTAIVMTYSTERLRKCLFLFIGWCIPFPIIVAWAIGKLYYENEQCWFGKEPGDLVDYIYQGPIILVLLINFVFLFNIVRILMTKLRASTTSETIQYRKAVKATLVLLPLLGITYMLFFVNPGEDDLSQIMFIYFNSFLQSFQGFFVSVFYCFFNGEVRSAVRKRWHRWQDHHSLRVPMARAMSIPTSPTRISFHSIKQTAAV
Sequence (P24387 whole entry): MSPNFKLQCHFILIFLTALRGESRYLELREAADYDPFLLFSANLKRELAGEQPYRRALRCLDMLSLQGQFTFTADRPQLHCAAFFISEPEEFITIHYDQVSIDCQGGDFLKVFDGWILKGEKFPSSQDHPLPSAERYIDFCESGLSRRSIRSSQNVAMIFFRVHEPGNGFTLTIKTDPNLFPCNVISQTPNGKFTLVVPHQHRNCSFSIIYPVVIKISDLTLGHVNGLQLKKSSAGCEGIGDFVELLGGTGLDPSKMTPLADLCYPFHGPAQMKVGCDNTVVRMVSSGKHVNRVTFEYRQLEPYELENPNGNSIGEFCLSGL
Experiment: activators of CRF receptor 2 with binding protein – uHTS hits, confirmation (AID 602473)
Assay type: functional
Settings: read-out: EC50_Mean
Activity calls are given as the source filed them.
Please reply with one of these outcomes: active, inactive

Example entries begin here.
COMPOUND	DISCRETE_LABEL
CC#CCCC(=O)N1C=Cc2ccccc2C1C#N (stereo unspecified)	inactive
O=C(O)c1ccccc1NS(=O)(=O)c1ccc2c(c1)OCCO2	inactive
CCOc1ccc(C(C)NC(=S)NCc2ccc(Cl)cc2)cc1 (stereo unspecified)	active
COC(=O)c1cc(C#N)c(NCc2ccccc2)nc1C	inactive
O=C(COc1ccc2ccccc2c1)Nc1cccc(C(=O)Nc2ccccc2C(=O)O)c1	inactive
CCN(C(=O)CSc1cc(C)c2ccc(OC)cc2n1)C1CCS(=O)(=O)C1 (stereo unspecified)	inactive

Dear all, I need the recorded test outcome for Cc1ccc(C(=O)Nc2nnc(-c3ccco3)o2)cc1C , thank you.
inactive

Record lookup: outcome of this test for C/C(=C\c1ccccc1)CN1CCC(C(=O)N2CCCCC2)CC1 ?
inactive

Test call for this compound, please: O=C(NCC(c1ccco1)N1CCCC1)c1cc2cc(Cl)ccc2o1 (stereo unspecified)
inactive

Would you mind telling me which call this test gave CC(CNC(=O)c1ccc(NC2=NC3CS(=O)(=O)CC3S2)cc1)c1ccccc1 (stereo unspecified) ?
inactive

Tell me the recorded outcome of this test for Cc1cc(C)c(OCC(=O)Nc2ccccc2N2CCOCC2)c(C)c1 .
inactive
